# subject of test: cyclic nucleotide phosphodiesterase
# protocol details: Inhibition of cAMP hydrolysis by beef heart cyclic nucleotide phosphodiesterase
# Assay type: biochemical
# settings: beef heart enzyme; 50% inhibition of cleavage of cAMP, cAMP = 1.6 × 10^-7 M; read-out: Phosphodiesterase Inhibition, I50 Heart
# From the text: Homogenates of rabbit lung and beef heart are made in sucrose-Tris-magnesium buffer and are subjected to centrifugation at low speed to remove nuclei and cell debris. […] The precipitation which forms at 0-50% saturation is collected by centrifugation at 20,000 × g, dissolved in Tris-magnesium buffer, and dialyzed overnight against the same buffer.
result type: IC50 (µM)

Value of IC50 reported for the molecule CC(=NNC(N)=S)c1nc2c(=O)[nH]c(N)nc2n1[C@@H]1O[C@@H]2COP(=O)(O)O[C@H]2[C@H]1O [Compound 15] is 50

CCCC(O)c1nc2c(=O)[nH]c(N)nc2n1[C@@H]1O[C@@H]2COP(=O)(O)O[C@H]2[C@H]1O (stereo partly shown) [Compound 12] yielded IC50 of 29

Quick note, IC50 for CC(=NNC(=O)Nc1ccccc1)c1nc2c(=O)[nH]c(N)nc2n1[C@@H]1O[C@@H]2COP(=O)(O)O[C@H]2[C@H]1O [Compound 17] landed at 40

Noted for CC(=O)c1nc2c(=O)[nH]cnc2n1[C@@H]1O[C@@H]2COP(=O)(O)O[C@H]2[C@H]1O [Compound 20, 8-Acetylinosine 3',5'-Cyclic Phosphate] : its IC50 reads 1000

Measured IC50, CC(C)c1nc2c(=O)[nH]c(N)nc2n1[C@@H]1O[C@@H]2COP(=O)(O)O[C@H]2[C@H]1O [Compound 3] : 100

P = CC(C)(C)Cc1nc2c(=O)[nH]c(N)nc2n1[C@@H]1O[C@@H]2COP(=O)(O)O[C@H]2[C@H]1O [Compound 5]
Q = CC(=O)c1nc2c(=O)[nH]c(N)nc2n1[C@@H]1O[C@@H]2COP(=O)(O)O[C@H]2[C@H]1O [Compound 6]
R = O=c1[nH]cnc2c1ncn2[C@@H]1O[C@@H]2COP(=O)(O)O[C@H]2[C@H]1O [Compound 19, Inosine 3',5'-cyclic phosphate, reference compound]
Input: Order by IC50, ascending. Labels, ranked as asked.
Output: R, P, Q

###

Below, each entry is listed with its recorded Protein Kinase, Ka ' Bovine.
# System: cAMP-dependent protein kinase
# protocol details: Activation of cAMP-dependent protein kinase isolated from beef brain
# Type: biochemical, bovine
# settings: ratio of Ka of cAMP to Ka of test compound; bovine brain cAMP-dependent kinase

Answered cases to consult:
Looking up `CC(C)(C)Cc1nc2c(=O)[nH]c(N)nc2n1[C@@H]1O[C@@H]2COP(=O)(O)O[C@H]2[C@H]1O` , I see its Protein Kinase, Ka ' Bovine listed as < 0.001

Reported Protein Kinase, Ka ' Bovine of O=c1[nH]cnc2c1ncn2[C@@H]1O[C@@H]2COP(=O)(O)O[C@H]2[C@H]1O [Compound 19, Inosine 3',5'-cyclic phosphate, reference compound] : 0.59

New cases:
For this molecule ( CC(O)c1nc2c(=O)[nH]c(N)nc2n1[C@@H]1O[C@@H]2COP(=O)(O)O[C@H]2[C@H]1O (stereo partly drawn) ), measured Protein Kinase, Ka ' Bovine is < 0.01

###

# subject of test: cyclic nucleotide phosphodiesterase
# protocol details: Inhibition of cAMP hydrolysis by rabbit lung cyclic nucleotide phosphodiesterase
# Format: biochemical
# settings: rabbit lung enzyme; 50% inhibition of cleavage of cAMP, cAMP = 1.6 × 10^-7 M; read-out: Phosphodiesterase Inhibition, I50 Lung
pIC50: −log10 of the molar value.
result type: pIC50

Please fill in: pIC50 reported for `CC(=NNC(N)=O)c1nc2c(=O)[nH]c(N)nc2n1[C@@H]1O[C@@H]2COP(=O)(O)O[C@H]2[C@H]1O` = 3.70

Form: compound = CC(C)C(O)c1nc2c(=O)[nH]c(N)nc2n1[C@@H]1O[C@@H]2COP(=O)(O)O[C@H]2[C@H]1O (stereo partly drawn) ; pIC50 = 3.74

The compound `CC(=NNC(=O)Nc1ccccc1)c1nc2c(=O)[nH]c(N)nc2n1[C@@H]1O[C@@H]2COP(=O)(O)O[C@H]2[C@H]1O` showed pIC50 equal to 3.82

// sample O=c1[nH]cnc2c1ncn2[C@@H]1O[C@@H]2COP(=O)(O)O[C@H]2[C@H]1O [Compound 19, Inosine 3',5'-cyclic phosphate, reference compound] , its pIC50 was 4.00

A = CCCC(O)c1nc2c(=O)[nH]c(N)nc2n1[C@@H]1O[C@@H]2COP(=O)(O)O[C@H]2[C@H]1O (stereo partly drawn)
B = CC(=NNc1ccccc1)c1nc2c(=O)[nH]c(N)nc2n1[C@@H]1O[C@@H]2COP(=O)(O)O[C@H]2[C@H]1O
Input: Between A and B , which one shows the larger pIC50 value? Your answer should be the label of the entry you select.
Output: A
(A: 3.88, B: 2.70)

###

# System: cGMP-dependent protein kinase
# protocol details: Activation of cGMP-dependent protein kinase isolated from lobster tail
# Format: biochemical
# settings: ratio of Ka of cGMP to Ka of test compound; lobster tail cGMP-dependent kinase
result type: Protein Kinase, Ka ' Lobster

Recorded Protein Kinase, Ka ' Lobster for `CC(=NNC(N)=S)c1nc2c(=O)[nH]c(N)nc2n1[C@@H]1O[C@@H]2COP(=O)(O)O[C@H]2[C@H]1O` on cGMP-dependent protein kinase was 0.052

Lab entry: cGMP-dependent protein kinase assay, compound O=c1[nH]cnc2c1ncn2[C@@H]1O[C@@H]2COP(=O)(O)O[C@H]2[C@H]1O [Compound 19, Inosine 3',5'-cyclic phosphate, reference compound] , Protein Kinase, Ka ' Lobster = 0.085

Hey, cGMP-dependent protein kinase data for `NC(=O)c1nc2c(=O)[nH]c(N)nc2n1[C@@H]1O[C@@H]2COP(=O)(O)O[C@H]2[C@H]1O` : Protein Kinase, Ka ' Lobster came out at 1.5

Entry `CC(=NNC(=O)Nc1ccccc1)c1nc2c(=O)[nH]c(N)nc2n1[C@@H]1O[C@@H]2COP(=O)(O)O[C@H]2[C@H]1O` ; assay system cGMP-dependent protein kinase; Protein Kinase, Ka ' Lobster recorded at 0.11

Entry CC(C)C(O)c1nc2c(=O)[nH]c(N)nc2n1[C@@H]1O[C@@H]2COP(=O)(O)O[C@H]2[C@H]1O (some centres unmarked) under cGMP-dependent protein kinase had Protein Kinase, Ka ' Lobster of 0.72

P = Nc1nc2c(ncn2[C@@H]2O[C@@H]3COP(=O)(O)O[C@H]3[C@H]2O)c(=O)[nH]1 [Compound 1, guanosine 3',5'-cyclic phosphate, reference compound]
Q = CC(C)(C)Cc1nc2c(=O)[nH]c(N)nc2n1[C@@H]1O[C@@H]2COP(=O)(O)O[C@H]2[C@H]1O
R = Cc1nc2c(=O)[nH]c(N)nc2n1[C@@H]1O[C@@H]2COP(=O)(O)O[C@H]2[C@H]1O [Compound 2, 8-Methylguanosine 3',5'-Cyclic Phosphate]
Input: Ordering criterion: Protein Kinase, Ka ' Lobster; begin with the maximum. Note for the reader: the ranking is given by listing the labels in the order requested.
Output: P, Q, R

###

# System: cGMP-dependent protein kinase
# protocol details: Activation of cGMP-dependent protein kinase isolated from lobster tail
# Type: biochemical
# settings: ratio of Ka of cGMP to Ka of test compound; lobster tail cGMP-dependent kinase
result type: Protein Kinase, Ka ' Lobster

# molecule CC(=NNC(N)=O)c1nc2c(=O)[nH]c(N)nc2n1[C@@H]1O[C@@H]2COP(=O)(O)O[C@H]2[C@H]1O [Compound 16] ; its Protein Kinase, Ka ' Lobster = 0.031

P = CC(=O)c1nc2c(=O)[nH]c(N)nc2n1[C@@H]1O[C@@H]2COP(=O)(O)O[C@H]2[C@H]1O [Compound 6]
Q = Nc1nc2c(nc(C(O)c3ccccc3)n2[C@@H]2O[C@@H]3COP(=O)(O)O[C@H]3[C@H]2O)c(=O)[nH]1 (stereo partly shown) [Compound 14]
Input: Record comparison, field Protein Kinase, Ka ' Lobster: mark the lower of P and Q . Identify your pick by its label.
Output: P
(P: 0.56, Q: 2.3)

###

# System: cGMP-dependent protein kinase
# protocol details: Activation of cGMP-dependent protein kinase isolated from lobster tail
# Format: biochemical
# settings: ratio of Ka of cGMP to Ka of test compound; lobster tail cGMP-dependent kinase
Counter-ions that a name gives are not always drawn.
result type: Protein Kinase, Ka ' Lobster

a = CC(=O)c1nc2c(=O)[nH]cnc2n1[C@@H]1O[C@@H]2COP(=O)(O)O[C@H]2[C@H]1O [Compound 20, 8-Acetylinosine 3',5'-Cyclic Phosphate]
b = CC(O)c1nc2c(=O)[nH]c(N)nc2n1[C@@H]1O[C@@H]2COP(=O)(O)O[C@H]2[C@H]1O (stereo partly drawn) [Compound 11]
c = CC(C)C(=O)c1nc2c(=O)[nH]c(N)nc2n1[C@@H]1O[C@@H]2COP(=O)(O)O[C@H]2[C@H]1O [Compound 8, Phosphate Ammonium Salt]
Input: Going from lowest to highest recorded Protein Kinase, Ka ' Lobster, rank the entries listed above. As an answer, provide the labels arranged in the order called for.
Output: a, c, b
(a: 0.0041, c: 0.13, b: 1.8)

A = Nc1nc2c(nc(C(=O)c3ccccc3)n2[C@@H]2O[C@@H]3COP(=O)(O)O[C@H]3[C@H]2O)c(=O)[nH]1 [Compound 9]
B = O=C(c1ccccc1)c1nc2c(=O)[nH]cnc2n1[C@@H]1O[C@@H]2COP(=O)(O)O[C@H]2[C@H]1O [Compound 21, 8-Benzoylinosine 3',5'-Cyclic Phosphate]
Input: Consider entries A and B . Which has the numerically lower Protein Kinase, Ka ' Lobster? # respond with the chosen item's label
Output: B
(B: 0.011, A: 0.68)
